System: K562
PROTOCOL: Antiproliferative activity against human K562 cells after 48 hrs by MTT assay
Format: functional, cell-based
APPLIED_CONDITIONS: K562, 48 h
molecules and their reported IC50

q: # return recorded IC50 for entry COc1ccc(CN2C(=O)C(=O)c3c(-c4ccc(OC)cc4)cccc32)cc1
a: > 10 µM

---

Tested on: K562
PROTOCOL: Antiproliferative activity against human K562 cells after 48 hrs by MTT assay
Assay type: functional, cell-based
APPLIED_CONDITIONS: K562, 48 h
QUANTITY_NAME: IC50 (nM)
Field format: number, assumed nM, no unit text.

Answered examples (2):
[
  {
    "SMILES_NOTATION": "C=CCN1C(=O)C(=O)c2cc(-c3ccc(OC)cc3)ccc21",
    "SYSTEM": "K562",
    "READOUT_UNIT": "nM",
    "IC50": 390
  },
  {
    "SMILES_NOTATION": "COc1ccc(-c2ccc3c(c2)C(=O)C(=O)N3CCOc2ccccc2)cc1",
    "SYSTEM": "K562",
    "READOUT_UNIT": "nM",
    "IC50": 400
  }
]

Alright, here's another molecule for you.
q: # return recorded IC50 for entry COc1ccc(CN2C(=O)C(=O)c3cc(-c4ccc(C)cc4)ccc32)cc1
a: 400

---

Tested on: K562
PROTOCOL: Antiproliferative activity against human K562 cells after 48 hrs by MTT assay
Type: functional, cell-based
APPLIED_CONDITIONS: K562, 48 h
pIC50: −log10 of the molar value.
compounds and their reported pIC50

[
  {
    "SMILES_NOTATION": "O=C1Nc2ccc(-c3ccc(C(F)(F)F)cc3)cc2C1=O",
    "pIC50": "< 5.00"
  },
  {
    "SMILES_NOTATION": "COc1ccc(-c2ccc3c(c2)C(=O)C(=O)N3c2ccc(OC)cc2)cc1",
    "pIC50": "< 5.00"
  }
]

q: # return recorded pIC50 for entry COc1ccc(CN2C(=O)C3(OCCO3)c3cc(-c4ccc(OC)cc4)ccc32)cc1
a: < 5.00

q: # return recorded pIC50 for entry COc1ccc(CN2C(=O)Cc3cc(-c4ccc(OC)cc4)ccc32)cc1
a: < 5.00

q: # return recorded pIC50 for entry COc1ccc(-c2ccc3c(c2)C(=O)C(=O)N3C)cc1
a: 5.30
